- experimental-target: T1, recombinant canine Nerve Growth Factor (Canis lupus familiaris NGF) (canine (Canis lupus familiaris), UniProt Q29074 110-229 (pig entry), limits assumed)
- T1 construct: also called canine NGF; Dog NGF
- T1 chain: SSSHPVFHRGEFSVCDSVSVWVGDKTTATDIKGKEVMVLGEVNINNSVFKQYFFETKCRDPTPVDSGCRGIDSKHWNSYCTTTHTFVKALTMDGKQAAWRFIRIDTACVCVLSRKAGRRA
- test-details: SPR, 1:1 binding fit, canine NGF
readout-type: koff (s⁻¹)

SSM-17 (LC SSMwtLCR53S, HC SSMwtHCD54T) (antibody, V domains shown) VH: EVQLVESGGDLARPGGSLKLSCVVSGFSLIGYDINWVRQAPGKGLQWVTMIWGTGTTDYNSALKSRFTVSRDNAMNTVYLQMNSLRVEDTAVYYCARGGYYYGTSYYFDYWGQGTLVTVSS VL: DIVMTQTPLSLSVSPGETASISCRASQDISNHLNWFRQKPGQSPQRLIYYISSFHSGVPDRFSGSGSGTDFTLRISRVEADDTGVYYCQQSKTLPYTFGAGTKLEIK : 0.0014
SSM-8 (LC E3M, HC SSMwtHCD54T, L63I) (antibody, V domains shown) VH: EVQLVESGGDLARPGGSLKLSCVVSGFSLIGYDINWVRQAPGKGLQWVTMIWGTGTTDYNSAIKSRFTVSRDNAMNTVYLQMNSLRVEDTAVYYCARGGYYYGTSYYFDYWGQGTLVTVSS VL: DIVMTQTPLSLSVSPGETASISCRASQDISNHLNWFRQKPGQSPQRLIYYISRFHSGVPDRFSGSGSGTDFTLRISRVEADDTGVYYCQQSKTLPYTFGAGTKLEIK : 0.000173
SSM-3 (LC E3M, HC SSMwtHCG31E) (antibody, V domains shown) VH: EVQLVESGGDLARPGGSLKLSCVVSGFSLIEYDINWVRQAPGKGLQWVTMIWGDGTTDYNSALKSRFTVSRDNAMNTVYLQMNSLRVEDTAVYYCARGGYYYGTSYYFDYWGQGTLVTVSS VL: DIVMTQTPLSLSVSPGETASISCRASQDISNHLNWFRQKPGQSPQRLIYYISRFHSGVPDRFSGSGSGTDFTLRISRVEADDTGVYYCQQSKTLPYTFGAGTKLEIK : 0.000167
